system: Yap1 mRNA; test: Antisense inhibition of human Yap1 in SNU-449 cells by modified oligonucleotides, single dose (Example 5, RTS36584); type: cell-based; conditions: Table 51; Yap1 mRNA remaining as percent of untreated control (UT), SNU-449 cells, single dose
Strand notation (5' to 3'): a small letter for the sugar, then the base; units joined by * are phosphorothioate-linked, units joined directly phosphodiester-linked; [ ] holds rarer units or linkages, { } end groups; capitals alone tell only the bases. k = constrained ethyl (cEt); [5mC] = 5-methylcytosine; d = 2'-deoxy (DNA); m = 2'-O-methyl
Just a reminder that ties go to NOT MET: only YAP1 (% UT) strictly below 50 % UT counts as MET.

Problem: For the substance 1197263 (kG*kA*k[5mC]*dA*mA*d[5mC]*dT*d[5mC]*dT*dT*dA*dT*dA*kT*kG*kG) [Compound 1197263] , is YAP1 (% UT) under 50 % UT? NOT MET

Strictly below 50 % UT in YAP1 (% UT)? 1197248 (antisense kT*kT*kA*dA*mG*d[5mC]*dA*d[5mC]*dT*dT*dT*dT*dA*k[5mC]*kA*kT) [Compound 1197248] NOT MET

Bench note: check whether 1197271 (kT*kT*kT*dA*mA*dA*dG*dT*dG*dT*dA*dT*dG*kT*k[5mC]*kA) [Compound 1197271] shows YAP1 (% UT) below 50 % UT MET

Is YAP1 (% UT) strictly under 50 % UT for the entry 1197257 (antisense kT*k[5mC]*kA*dG*mA*dT*dT*dT*dA*dG*dG*dA*dT*kG*k[5mC]*kA) [Compound 1197257] ? MET

Is YAP1 (% UT) strictly under 50 % UT for the entry 1200800 (T_{ks}A_{ks}T_{ks}A_{ds}T_{ds}U_{ys}A_{ds}G_{ds}A_{ds}G_{ds}T_{ds}A_{ds}T_{ds}G_{ks}T_{ks}G_{k}; antisense; as printed in the source, key not given here) [Compound 1200800] ? NOT MET

For this substance, is YAP1 (% UT) lower than 50 % UT? 1197302 (k[5mC]*kA*kG*dA*mU*dT*dT*dA*dG*dG*dA*dT*dG*k[5mC]*kA*kT; antisense) [Compound 1197302] NOT MET

Is YAP1 (% UT) of 1200801 (kT*k[5mC]*kT*dA*dT*mA*dT*dT*dA*dG*dA*dG*dT*kA*kT*kG; antisense) [Compound 1200801] strictly below 50 % UT? NOT MET

====

tested on: Yap1 mRNA; assay: Dose-dependent inhibition of human Yap1 in SNU-449 cells (Example 9, RTS36584); format: cell-based; conditions: 2000.00 nM, free uptake, approximately 48 hours
Strand notation (5' to 3'): a small letter for the sugar, then the base; units joined by * are phosphorothioate-linked, units joined directly phosphodiester-linked; [ ] holds rarer units or linkages, { } end groups; capitals alone tell only the bases. k = constrained ethyl (cEt); [5mC] = 5-methylcytosine; d = 2'-deoxy (DNA)
Metric Name: % UTC (Yap1 mRNA) (% UTC)
Express your answer in % UTC, writing the number without its unit.

Dear colleague, please send me the reported % UTC (Yap1 mRNA) for 1198440 (AAGTGTATGTCAGAAG; cEt, 2'-MOE, 5-methylcytosine, phosphorothioate modifications, further chemistry not given here) [compound 1198440] when you can. 2

Using known records, supply % UTC (Yap1 mRNA) for 1198902 (kT*kT*dA*dG*dA*dG*dT*dA*dT*dG*dT*kG*dG*k[5mC]*dA*kA; antisense) [compound 1198902] 10

Provide % UTC (Yap1 mRNA) value for the following substance: 1198917 (k[5mC]*kA*d[5mC]*dT*dT*dT*dT*dA*d[5mC]*dA*dT*kT*dA*kG*dG*kA; antisense) [compound 1198917] 6

====

test system: Yap1 mRNA; experiment: Antisense inhibition of human Yap1 in A-431 cells by cEt gapmers, single dose (Example 2, RTS4814); type: cell-based; conditions: Table 20; Yap1 mRNA, percent of untreated control; 3-10-3 cEt gapmers targeting SEQ ID NO.: 1 and 2
Strand notation (5' to 3'): a small letter for the sugar, then the base; units joined by * are phosphorothioate-linked, units joined directly phosphodiester-linked; [ ] holds rarer units or linkages, { } end groups; capitals alone tell only the bases. k = constrained ethyl (cEt); [5mC] = 5-methylcytosine; d = 2'-deoxy (DNA)
What YAP1 (% UTC) was measured for each of the following?
Report the figure in % UTC without appending any unit label.

Answer with reported YAP1 (% UTC) of 958499 (kA*kT*kT*dA*dG*dA*dG*dT*dA*dT*dG*dT*dG*kG*k[5mC]*kA) [Compound 958499] 1

Report measured YAP1 (% UTC); entry is 1075494 (antisense kT*k[5mC]*kT*d[5mC]*dA*dA*d[5mC]*dA*dA*dT*dT*dT*dG*k[5mC]*kT*kA) [Compound 1075494] 47

Quickly give me recorded YAP1 (% UTC) for 1075942 (kT*kG*kA*d[5mC]*dT*dA*dT*dA*d[5mC]*dA*dT*dG*dG*kT*kG*kA; antisense) [Compound 1075942] 46

====

system: Yap1 mRNA; assay: Dose-dependent inhibition of human Yap1 in SNU-449 cells (Example 9, RTS36584); type: cell-based; details: 2000.00 nM, free uptake, approximately 48 hours
Strand notation (5' to 3'): a small letter for the sugar, then the base; units joined by * are phosphorothioate-linked, units joined directly phosphodiester-linked; [ ] holds rarer units or linkages, { } end groups; capitals alone tell only the bases. e = 2'-O-(2-methoxyethyl) (MOE); k = constrained ethyl (cEt); [5mC] = 5-methylcytosine; d = 2'-deoxy (DNA); m = 2'-O-methyl
Decide by % UTC (Yap1 mRNA): equal to or exceeding 10 % UTC means true, less means false.

Hi, just wondering whether 1198460 (kG*kA*dA*dA*dT*dT*dG*dT*d[5mC]*dT*d[5mC]*eA*kT*eG*k[5mC]*e[5mC]; antisense) [compound 1198460] shows % UTC (Yap1 mRNA) of 10 % UTC or higher. true

Quick check: does 1200862 (kT*kT*kT*dA*dA*mA*dG*dT*dG*dT*dA*dT*dG*kT*k[5mC]*kA; antisense) [compound 1200862] have % UTC (Yap1 mRNA) greater than or equal to 10 % UTC? true

Textbook exercise: given the entry 1198900 (kA*kG*dA*dG*dT*dA*dT*dG*dT*dG*dG*k[5mC]*dA*kA*dT*kA; antisense) [compound 1198900] , state whether its % UTC (Yap1 mRNA) is greater than or equal to 10 % UTC. false

Answer whether % UTC (Yap1 mRNA) of 1198267 (kA*kG*dT*dG*dT*dA*dT*dG*dT*d[5mC]*dA*eG*eA*eA*kG*kA; antisense) [compound 1198267] is greater than or equal to 10 % UTC. false

Reported % UTC (Yap1 mRNA) reaches at least 10 % UTC for 1198638 (kA*kG*dA*dG*dT*dA*dT*dG*dT*dG*dG*d[5mC]*kA*eA*kT*eA; antisense) [compound 1198638] ? false

====

system: Yap1 mRNA; assay: Antisense inhibition of human Yap1 in A-431 cells by cEt gapmers, single dose (Example 2, RTS4814); type: cell-based; settings: Table 23; Yap1 mRNA as percent of untreated control; 3-10-3 cEt gapmers; single dose
Strand notation (5' to 3'): a small letter for the sugar, then the base; units joined by * are phosphorothioate-linked, units joined directly phosphodiester-linked; [ ] holds rarer units or linkages, { } end groups; capitals alone tell only the bases. k = constrained ethyl (cEt); [5mC] = 5-methylcytosine; d = 2'-deoxy (DNA)
Task for the reader: assign each of the following substances its reported YAP1 (% UTC).
Form entry: value (% UTC) — number only.

Return reported YAP1 (% UTC) for target or system Yap1 mRNA, item 1074921 (antisense k[5mC]*kA*k[5mC]*dT*d[5mC]*dA*dA*dG*dT*dT*dA*d[5mC]*dA*kT*k[5mC]*k[5mC]) [Compound 1074921] . 65

# return YAP1 (% UTC) of 1076425 (k[5mC]*kG*kG*dG*dA*dA*dA*dA*dT*dT*d[5mC]*dT*dG*kG*kA*kG; antisense) [Compound 1076425] (system: Yap1 mRNA) 32

Name the value of YAP1 (% UTC) reported for 1075721 (kT*kT*kA*dA*dA*dT*dA*d[5mC]*d[5mC]*dT*dT*d[5mC]*dT*kA*kG*k[5mC]; antisense) [Compound 1075721] when tested on Yap1 mRNA. 67

Jot down YAP1 (% UTC) (Yap1 mRNA) of 1074345 (antisense kT*k[5mC]*kT*dG*dA*dG*d[5mC]*dT*dA*dT*dT*dG*dG*kT*k[5mC]*kG) [Compound 1074345] . 8

State YAP1 (% UTC) on Yap1 mRNA. Entry: 1074857 (antisense kA*k[5mC]*kA*dT*dT*dG*dG*dT*dA*d[5mC]*dT*dA*dT*kA*kT*kA) [Compound 1074857] 25

Recall the reported YAP1 (% UTC) of 1075945 (kG*kT*kA*dT*dT*dA*dG*dG*dA*dA*d[5mC]*dA*dG*kA*kT*k[5mC]; antisense) [Compound 1075945] when tested on Yap1 mRNA. 11

Tell me its YAP1 (% UTC) on Yap1 mRNA: 1076329 (kA*kA*kT*dT*dA*dT*dA*d[5mC]*dT*dG*dG*d[5mC]*dT*kA*k[5mC]*kT; antisense) [Compound 1076329] 14

Give Yap1 mRNA YAP1 (% UTC) for the following substance: 1075625 (kA*kA*kT*d[5mC]*dT*dA*dT*dA*dA*d[5mC]*d[5mC]*d[5mC]*dT*kT*kA*kT; antisense) [Compound 1075625] 49

Answer with YAP1 (% UTC) of 1075465 (antisense kG*kA*kT*dT*dT*dA*dT*dT*dG*dA*dA*d[5mC]*dT*kG*kA*kG) [Compound 1075465] measured for Yap1 mRNA. 7

Quote Yap1 mRNA YAP1 (% UTC) for entry 1074473 (k[5mC]*kA*kA*d[5mC]*d[5mC]*d[5mC]*d[5mC]*d[5mC]*d[5mC]*d[5mC]*dA*d[5mC]*d[5mC]*kG*kA*k[5mC]; antisense) [Compound 1074473] . 82

Provide Yap1 mRNA YAP1 (% UTC) reading for 1075881 (kG*kA*kT*dT*dA*dA*d[5mC]*dT*dA*d[5mC]*dA*d[5mC]*d[5mC]*kA*k[5mC]*kG; antisense) [Compound 1075881] . 23

Enter recorded YAP1 (% UTC) with Yap1 mRNA for 1074793 (kA*kA*kT*d[5mC]*dA*dA*dT*dG*dT*dG*d[5mC]*dT*d[5mC]*k[5mC]*kA*kT; antisense) [Compound 1074793] here. 9

Answer briefly: YAP1 (% UTC) recorded on Yap1 mRNA for 1075529 (kA*kA*kA*dT*d[5mC]*dG*dA*dA*dG*dG*dG*d[5mC]*dA*kA*kA*k[5mC]; antisense) [Compound 1075529] 84

Quote YAP1 (% UTC) with test system Yap1 mRNA for 1075209 (antisense k[5mC]*kA*kT*d[5mC]*dA*dA*d[5mC]*dA*dA*dT*dG*dG*dT*k[5mC]*kT*kA) [Compound 1075209] 11

Report YAP1 (% UTC) under test system Yap1 mRNA for 1074697 (antisense kA*kT*k[5mC]*dA*dA*dG*dG*dT*d[5mC]*d[5mC]*d[5mC]*d[5mC]*d[5mC]*kT*kA*kA) [Compound 1074697] . 44

Param request: YAP1 (% UTC) | system Yap1 mRNA | item 1075689 (k[5mC]*kA*kA*d[5mC]*dT*dA*dT*dA*d[5mC]*dA*dA*dG*dG*k[5mC]*kA*kA; antisense) [Compound 1075689] 4

Consider the substance 1075785 (k[5mC]*kA*kT*dT*dT*dT*dA*dT*dA*dG*dG*dG*d[5mC]*k[5mC]*kA*kT; antisense) [Compound 1075785] tested on Yap1 mRNA; state its YAP1 (% UTC). 2

State YAP1 (% UTC) on Yap1 mRNA. Entry: 1076233 (k[5mC]*k[5mC]*kA*dA*dT*dA*dA*dA*dG*d[5mC]*dA*dA*dG*kT*kA*kG; antisense) [Compound 1076233] 13

Return reported YAP1 (% UTC) for target or system Yap1 mRNA, item 1074569 (antisense kT*kG*kA*dA*d[5mC]*d[5mC]*dT*dA*d[5mC]*dT*d[5mC]*dA*d[5mC]*kT*kG*kA) [Compound 1074569] . 8

# assay system Yap1 mRNA: give YAP1 (% UTC) of 1076361 (kT*kG*kG*dG*dA*dA*dA*dA*dG*d[5mC]*dT*dA*d[5mC]*k[5mC]*kA*k[5mC]; antisense) [Compound 1076361] 87

Under Yap1 mRNA: report YAP1 (% UTC) of 1076297 (kT*kT*kA*dT*dA*dA*dA*dG*dA*d[5mC]*d[5mC]*d[5mC]*dA*kA*kT*kG; antisense) [Compound 1076297] . 52

Fill in: YAP1 (% UTC) on Yap1 mRNA, entry 1075305 (kA*kA*kA*d[5mC]*dG*dA*dA*dA*d[5mC]*dA*d[5mC]*dG*dG*kG*kT*kA; antisense) [Compound 1075305] 66

Find YAP1 (% UTC) for 1076489 (antisense k[5mC]*kA*kA*dA*dA*dT*dA*dG*dG*dT*dG*dA*dG*kT*k[5mC]*kA) [Compound 1076489] on Yap1 mRNA and write it down. 2

Enter recorded YAP1 (% UTC) with Yap1 mRNA for 1074377 (antisense kA*kA*kA*d[5mC]*dG*dG*dT*dT*d[5mC]*dT*dG*d[5mC]*dT*kG*kT*kG) [Compound 1074377] here. 52
